Assayed system: T1, Boc-Glu(OBzl)-Ala-Arg-MCA
T1 chain: EAR
Recorded endpoint: kcat (s⁻¹)
Give bare numbers, in s⁻¹.

// below: answered proteins
porcine EP serine protease domain (Ile800 to His1034) (protein) IVGGNDSREGAWPWVVALYYNGQLLCGASLVSRDWLVSAAHCVYGRNLEPSKWKAILGLHMTSNLTSPQIVTRLIDEIVINPHYNRRRKDSDIAMMHLEFKVNYTDYIQPICLPEENQVFPPGRICSIAGWGKVIYQGSPADILQEADVPLLSNEKCQQQMPEYNITENMMCAGYEEGGIDSCQGDSGGPLMCLENNRWLLAGVTSFGYQCALPNRPGVYARVPKFTEWIQSFLH ... 1.83
Medaka EP-1 serine protease domain mutant K63R (protein) VVGGVNAEKGAWPWMVSLHWRGRHGCGASLIGRDWLLTAAHCVYGRNTHLQYWSAVLGLHAQSSMNSQEVQIRQVDRIIINKNYNRRTKEADIAMMHLQQPVNFTEWVLPVCLASEDQHFPAGRRCFIAGWGRDAEGGSLPDILQEAEVPLVDQDECQRLLPEYTFTSSMLCAGYPEGGVDSCQGDSGGPLMCLEDARWTLIGVTSFGVGCGRPERPGAYARVSAFTSWIAETRRSSFSDLD ... 0.2

Turning now to a further record.
The value of kcat measured for the protein Medaka EP-1 serine protease domain mutant E173A (protein) VVGGVNAEKGAWPWMVSLHWRGRHGCGASLIGRDWLLTAAHCVYGKNTHLQYWSAVLGLHAQSSMNSQEVQIRQVDRIIINKNYNRRTKEADIAMMHLQQPVNFTEWVLPVCLASEDQHFPAGRRCFIAGWGRDAEGGSLPDILQEAEVPLVDQDACQRLLPEYTFTSSMLCAGYPEGGVDSCQGDSGGPLMCLEDARWTLIGVTSFGVGCGRPERPGAYARVSAFTSWIAETRRSSFSDLD turned out to be 0.167

FYI, the data here is from patent US20080213836.
